Molecular target: purified and unphosphorylated T315I Abl kinase domain (ABL_T315I_0P) (Mus musculus, UniProt P00520, T315I)
Construct: The c-Abl T3151 KD (kinase domain) was purified as follows; Met-Ser-Leu (vector-derived residues) (N); made in house; host or cells: E. coli BL21(DE3) strains (Codon+RIL, or pSA0145 for the lambda phosphatase co-expression plasmid)
Sequence (P00520 242-493 T315I limits assumed): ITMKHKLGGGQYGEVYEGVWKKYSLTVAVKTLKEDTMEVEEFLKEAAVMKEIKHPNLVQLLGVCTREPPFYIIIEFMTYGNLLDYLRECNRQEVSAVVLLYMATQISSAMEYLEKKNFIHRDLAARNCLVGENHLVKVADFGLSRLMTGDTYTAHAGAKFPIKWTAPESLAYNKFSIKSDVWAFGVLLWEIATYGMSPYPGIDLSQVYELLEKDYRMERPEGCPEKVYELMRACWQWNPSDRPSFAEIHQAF
Test: c-Abl T315I (unphosphorylated kinase domain) pyruvate kinase/lactate dehydrogenase coupled enzyme assay
Assay type: biochemical
Conditions: 10 μM ATP
measure.name: ABL_T315I_0P (IC50)

- CN(C)C(=O)c1cncc(-c2cnc3[nH]cc(-c4ccc(F)cc4F)c3c2Cl)c1: C (0.1-0.01 μM)
- COc1ccccc1-c1c[nH]c2ncc(-c3cncc(C(O)C(=O)N(C)C)c3)c(Cl)c12 (stereo not drawn): D (<0.01 μM)
- CN(C)C(=O)c1cc(-c2cnc3[nH]cc(-c4ccc5c(c4)CC(=O)N5)c3c2Cl)cnc1N: D (<0.01 μM)
- CN(C)C1CCN(C(=O)c2cc(-c3cnc4[nH]cc(-c5cccc(F)c5)c4c3Cl)cnc2N)C1 (stereo not drawn): D (<0.01 μM)
- CN(C)C(=O)c1cncc(-c2cnc3[nH]cc(-c4ccc(F)cc4)c3c2Cl)n1: D (<0.01 μM)

Suppose we examine the compound `COc1ccccc1-c1c[nH]c2ncc(-c3cccc(C(=O)N(C)C)c3)c(C)c12` ; what ABL_T315I_0P (IC50) value has been reported? D (<0.01 μM)

Next entry: OC(c1cccc(-c2cnc3[nH]cc(-c4ccccc4F)c3c2Cl)c1)c1ncco1 (stereo not drawn) D (<0.01 μM)

Next entry: OC(c1cccc(-c2cnc3[nH]cc(-c4ccc(F)cc4)c3c2Cl)c1)c1ncco1 (stereo not drawn) C (0.1-0.01 μM)

What do we get for `COc1ccccc1-c1c[nH]c2ncc(-c3cncc(C(=O)C(=O)N(C)C)c3)c(OC)c12` ? D (<0.01 μM)
